The molecules listed here are annotated with their ORYSAT.
# Test system: Oryza sativa, (L.) Tebonnet
# experimental.protocol: Rice tolerance to post-transplant applications under flooded paddy conditions (Example 187), ORYSAT (Rice, Tebonnet)
# applied.conditions: 0.0620 kg/ha, herbicidal effect rating 0-9, three to four weeks after treatment
property.label: ORYSAT

| molecule | value |
| --- | --- |
| CCOCN(C(=O)c1nsc2ccc(-n3c(=O)cc(C(F)(F)F)n(C)c3=O)cc12)S(=O)(=O)Cc1ccccc1 [Example 440] | 4.0 |
| Cc1ccc(OCC(=O)O)c(-c2noc3cc(F)c(-n4c(=O)cc(C(F)(F)F)n(C)c4=O)cc23)c1 [Example 425] | 6.0 |
| CN(c1ccc(-c2nsc3ccc(-n4c(=O)cc(C(F)(F)F)n(C)c4=O)cc23)cc1)S(C)(=O)=O [Example 430] | 2.0 |
| CCOC(=O)c1nsc2cc(F)c(-n3c(=O)cc(C(F)(F)F)n(C)c3=O)cc12 [Example 423] | 6.0 |
| CN(Cc1ccc(Cl)cc1)S(=O)(=O)NC(=O)c1nsc2ccc(-n3c(=O)cc(C(F)(F)F)n(C)c3=O)cc12 [Example 420] | 2.0 |
| Cn1c(C(F)(F)F)cc(=O)n(-c2ccc3snc(C(=O)NS(=O)(=O)Cc4ccccc4[N+](=O)[O-])c3c2)c1=O [Example 404] | 0.0 |
| COC(=O)C(C)Oc1cc2c(cc1-c1nsc3ccc(-n4c(=O)cc(C(F)(F)F)n(C)c4=O)cc13)CCC2 (stereo not shown) [Example 435] | 1.0 |
